These data points were gathered from ChEMBL document CHEMBL1221290.

Test: Volume of distribution at steady state in rat at 1 mg/kg, iv and 3 mg/kg, po
Format: ADME, organism-based
Settings: in vivo, read-out: Vdss
reportedMetric: Vd

> print(dat)
                                  smilesstr  valuemeasured
1  CC(C)(CN1CCN(C2=Cc3ccccc3Cn3ccnc32)CC1)C(=O)O       1.9 L/kg

* * *

Assay: Blood clearance in rat at 1 mg/kg, iv and 3 mg/kg, po
Format: ADME, organism-based
reportedMetric: clearance

> print(dat)
                                  smilesstr  valuemeasured
1  CC(C)(CN1CCN(C2=Cc3ccccc3Cn3ccnc32)CC1)C(=O)O    2.28 L/h/kg
